pIC50: −log10 of the molar value.
human Gal-3 (hGal-3) (Homo sapiens (Human)) pIC50 data
Sequence (P17931 whole entry): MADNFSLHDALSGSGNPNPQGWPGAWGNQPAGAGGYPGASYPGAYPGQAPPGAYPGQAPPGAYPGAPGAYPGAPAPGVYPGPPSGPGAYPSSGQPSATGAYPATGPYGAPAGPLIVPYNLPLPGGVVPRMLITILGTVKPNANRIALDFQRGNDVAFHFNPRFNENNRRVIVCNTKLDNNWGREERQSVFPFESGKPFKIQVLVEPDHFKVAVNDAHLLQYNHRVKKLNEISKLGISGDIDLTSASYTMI
measured-parameter: pIC50

Short answer please: pIC50, human Gal-3 (hGal-3) (Homo sapiens (Human)), entry CC(=O)O[C@@H]1[C@@H](n2cc(-c3ccc(C)c(F)c3F)nn2)[C@@H](O)[C@@H](CO)O[C@@H]1Cc1cc(C(C)(C)C)on1 [Ex 1.204]
7.39

CO[C@@H]1[C@@H](n2cc(-c3nc(Br)cs3)nn2)[C@@H](O)[C@@H](CO)O[C@@H]1CC1CC(C2CCN(C(=O)OC(C)(C)C)CC2)=NO1 (stereo partly drawn) [Ex 1.311] , same question.
5.62

CO[C@@H]1[C@@H](n2cc(-c3cc(F)c(F)c(F)c3)nn2)[C@@H](O)[C@@H](CO)O[C@@H]1Cn1cc(C2(C)CCOCC2)nn1 [Example 4.51] , same question.
6.80

CC(C)(C)OC(=O)N1CCC(c2cc(C[C@H]3O[C@H](CO)[C@H](O)[C@H](n4cc(-c5cc(F)c(F)c(F)c5)nn4)[C@H]3OCC(F)F)no2)CC1 [Example 2.25] , same question.
6.77

a. CO[C@@H]1[C@@H](n2cc(-c3cc(F)c(F)c(F)c3)nn2)[C@@H](O)[C@@H](CO)O[C@@H]1Cc1cc(C(C)(C)CO)no1 [Ex 1.207]
b. CO[C@@H]1[C@@H](n2cc(-c3ccc(Cl)c(F)c3)nn2)[C@@H](O)[C@@H](CO)O[C@@H]1Cc1cc(C2CCCCC2)on1 [Ex 1.174]
Exercise: compare a and b ; which one has the greater pIC50? Refer to your chosen entry by its label in the reply.
a

----------
- target: human Gal-1 (hGal-1)
- Sequence (P09382 2-135 limits assumed): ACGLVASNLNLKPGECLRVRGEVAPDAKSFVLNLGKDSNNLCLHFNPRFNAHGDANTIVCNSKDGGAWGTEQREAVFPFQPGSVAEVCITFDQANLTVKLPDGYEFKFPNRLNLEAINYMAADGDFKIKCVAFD
- test-protocol: Competitive binding assay: binding of biotinylated hGal-1 to microplate-adsorbed asialofetuin (ASF)
- assay-context: Activities on hGal-1; mean values of several measurements
measured-parameter: IC50 (µM)

Before answering, review these 4 worked examples.
Report IC50 for CO[C@@H]1[C@@H](n2cc(-c3cccc4ccccc34)nn2)[C@@H](O)[C@@H](CO)O[C@@H]1CC1CC(C2CCN(C(=O)OC(C)(C)C)CC2)=NO1 (stereo partly drawn) please.
1.18

CO[C@@H]1[C@@H](n2cc(-c3cc(F)c(F)c(F)c3)nn2)[C@@H](O)[C@@H](CO)O[C@@H]1Cc1cc(C2CCC(F)(F)CC2)on1 , same question.
4.24

CO[C@@H]1[C@@H](n2cc(-c3cc(F)c(F)c(F)c3)nn2)[C@@H](O)[C@@H](CO)O[C@@H]1Cc1cn(C2CCS(=O)(=NC(C)C)CC2)nn1 (stereo partly drawn) , same question.
0.32

CO[C@@H]1[C@@H](n2cc(-c3cc(F)c(F)c(F)c3)nn2)[C@@H](O)[C@@H](CO)O[C@@H]1CC1CN(c2ccc(OC(F)F)cc2)C(=O)O1 (mixture of isomers) , same question.
3.55

a. CO[C@@H]1[C@@H](n2cc(-c3cc(F)c(F)c(F)c3)nn2)[C@@H](O)[C@@H](CO)O[C@@H]1C[C@@H]1CC(c2ccc3[nH]c(=O)oc3c2)=NO1
b. CO[C@@H]1[C@@H](n2cc(-c3cc(F)c(F)c(F)c3)nn2)[C@@H](O)[C@@H](CO)O[C@@H]1Cn1cc(C2(O)CCC2)nn1
Exercise: compare a and b ; which one has the greater IC50? Refer to your chosen entry by its label in the reply.
b

----------
- target: human Gal-3 (hGal-3) (Homo sapiens (Human))
pIC50: −log10 of the molar value.
measured-parameter: pIC50

Report pIC50 for CO[C@@H]1[C@@H](n2cc(-c3cc(F)c(F)c(F)c3)nn2)[C@@H](O)[C@@H](CO)O[C@@H]1Cc1cc(C2CCN(C)CC2)on1 [Example 3.39] please.
6.59

I. CO[C@@H]1[C@@H](n2cc(-c3cc(F)c(F)c(F)c3)nn2)[C@@H](O)[C@@H](CO)O[C@@H]1Cc1cc(C(C)(C)CNC(=O)OC(C)(C)C)no1 [Ex 1.315]
II. CN=S1(=O)CCC(n2cc(C[C@H]3O[C@H](CO)[C@H](O)[C@H](n4cc(-c5cc(F)c(F)c(F)c5)nn4)[C@H]3OC)nn2)CC1 (stereo partly drawn) [Example 4.18]
Exercise: compare I and II ; which one has the greater pIC50? Refer to your chosen entry by its label in the reply.
II

----------
- target: human Gal-1 (hGal-1)
- test-protocol: Competitive binding assay: binding of biotinylated hGal-1 to microplate-adsorbed asialofetuin (ASF)
- assay-context: Activities on hGal-1; mean values of several measurements
measured-parameter: IC50 (µM)

Report IC50 for COc1cc(-c2cn([C@H]3[C@@H](O)[C@@H](CO)O[C@H](CC4CC(C5CCN(C(=O)OC(C)(C)C)CC5)=NO4)[C@@H]3O)nn2)cc(F)c1F (stereo partly drawn) please.
1.69

CC(=O)O[C@@H]1[C@@H](n2cc(-c3cc(F)c(F)c(F)c3)nn2)[C@@H](O)[C@@H](CO)O[C@@H]1CC1CC(C2CCNCC2)=NO1 (mixture of isomers) , same question.
6.84

CC(C)O[C@@H]1[C@@H](n2cc(-c3cc(F)c(F)c(F)c3)nn2)[C@@H](O)[C@@H](CO)O[C@@H]1Cc1cc(C2CCNCC2)on1 , same question.
9.61

OCc1cc(C[C@H]2O[C@H](CO)[C@H](O)[C@H](n3cc(-c4cc(F)c(F)c(F)c4)nn3)[C@H]2O)no1 , same question.
15.8

CO[C@@H]1[C@@H](n2cc(-c3cccc(F)c3F)nn2)[C@@H](O)[C@@H](CO)O[C@@H]1CC1CC(C2CCN(C(=O)OC(C)(C)C)CC2)=NO1 (stereo partly drawn) , same question.
0.44

a. CO[C@@H]1[C@@H](n2cc(-c3cc(F)c(F)c(F)c3)nn2)[C@@H](O)[C@@H](CO)O[C@@H]1C[C@H]1CC([C@@H]2CCN(C)C(=O)C2)=NO1
b. CO[C@@H]1[C@@H](n2cc(-c3ccc(F)c(F)c3F)nn2)[C@@H](O)[C@@H](CO)O[C@@H]1Cc1cc(C(C)(C)O)on1
c. CO[C@@H]1[C@@H](n2cc(-c3cc(F)c(F)c(F)c3)nn2)[C@@H](O)[C@@H](CO)O[C@@H]1CC1=NO[C@@H](C2CCCCC2)C1
d. CO[C@@H]1[C@@H](n2cc(-c3ccc(C)c(F)c3F)nn2)[C@@H](O)[C@@H](CO)O[C@@H]1CC1CC(C2CCN(C(=O)OC(C)(C)C)CC2)=NO1 (stereo partly drawn)
Please list the entries, largest IC50 first. Write out the labels following the order that was asked for.
c, a, d, b
(c: 15.4 µM, a: 4.11 µM, d: 1.88 µM, b: 0.97 µM)

----------
pIC50: −log10 of the molar value.
UniProt:P17931 pIC50 data
measured-parameter: pIC50

Report pIC50 for CO[C@@H]1[C@@H](n2cc(-c3cc(F)c(F)c(F)c3)nn2)[C@@H](O)[C@@H](CO)O[C@@H]1CC1=NOC(C(C)(C)C)C1 (stereo partly drawn) please.
5.97

P. Cc1ccc(-c2cn([C@H]3[C@@H](O)[C@@H](CO)O[C@H](Cc4cc(C(C)(C)C)no4)[C@@H]3O)nn2)c(F)c1F
Q. OC[C@H]1O[C@H](CC2CC(c3ccc4[nH]ncc4c3)=NO2)[C@H](O)[C@@H](n2cc(-c3cc(F)c(F)c(F)c3)nn2)[C@H]1O (stereo partly drawn)
Which record shows the lower pIC50: the first, P , or the second, Q ? Refer to your chosen entry by its label in the reply.
Q
(Q: 6.06, P: 6.89)

P. CO[C@@H]1[C@@H](n2cc(-c3ccc(C)c(F)c3F)nn2)[C@@H](O)[C@@H](CO)O[C@@H]1Cc1cc(C2(C#N)CCCC2)on1
Q. CN1CCC(C2=NOC(C[C@H]3O[C@H](CO)[C@H](O)[C@H](n4cc(-c5cc(F)c(F)c(F)c5)nn4)[C@H]3O)C2)CC1 (mixture of isomers)
Exercise: compare P and Q ; which one has the greater pIC50? Refer to your chosen entry by its label in the reply.
P
(P: 7.03, Q: 6.47)

----------
- target: human Gal-1 (hGal-1)
- test-protocol: Competitive binding assay: binding of biotinylated hGal-1 to microplate-adsorbed asialofetuin (ASF)
- assay-context: Activities on hGal-1; mean values of several measurements
- Description: Evaluation of Compound Inhibitory Activity (IC50) The inhibitory activity of compounds is determined in competitive binding assays. This spectrophotometric assay measures the binding of biotinylated human Gal-3 (hGal-3) or human Gal-1 (hGal-1), respectively, to a microplate-adsorbed glycoprotein, asialofetuin (ASF) (Proc Natl Acad Sci USA. 2013 Mar. 26; 110(13):5052-7.). […] The calculated IC50 values may fluctuate depending on the daily assay performance. […]
measured-parameter: IC50 (µM)

Before answering, review these 2 worked examples.
Short answer please: IC50, human Gal-1 (hGal-1), entry CO[C@@H]1[C@@H](n2cc(-c3cc(F)c(F)c(F)c3)nn2)[C@@H](O)[C@@H](CO)O[C@@H]1CC1CC(c2cncnc2)=NO1 (stereo partly drawn)
3.2

CO[C@@H]1[C@@H](n2cc(-c3cc(F)c(F)c(F)c3)nn2)[C@@H](O)[C@@H](CO)O[C@@H]1C[C@@H]1CN(C2CCN(C(C)=O)CC2)C(=O)O1 , same question.
0.3

A. CO[C@@H]1[C@@H](n2cc(-c3ccc(C)c(F)c3)nn2)[C@@H](O)[C@@H](CO)O[C@@H]1Cc1cc(C2CCN(C(C)=O)CC2)on1
B. OCCC1CC(C[C@H]2O[C@H](CO)[C@H](O)[C@H](n3cc(-c4cc(F)c(F)c(F)c4)nn3)[C@H]2O)=NO1 (stereo partly drawn)
Exercise: compare A and B ; which one has the greater IC50? Refer to your chosen entry by its label in the reply.
B

a. CO[C@@H]1[C@@H](n2cc(-c3cc(F)c(F)c(F)c3)nn2)[C@@H](O)[C@@H](CO)O[C@@H]1CC1CN(CC2CCN(C(=O)OC(C)(C)C)CC2)C(=O)O1 (mixture of isomers)
b. CO[C@@H]1[C@@H](n2cc(-c3ccc(C)c(F)c3)nn2)[C@@H](O)[C@@H](CO)O[C@@H]1Cc1cc(C(C)(C)C)on1
Exercise: compare a and b ; which one has the greater IC50? Refer to your chosen entry by its label in the reply.
a
(a: 42.1 µM, b: 5.43 µM)
